assay: NCI Yeast Anticancer Drug Screen. Data for the bub3 strain (AID 167); conditions: S. cerevisiae bub3 mutant strain, hits give high values; at 50.0 µM unless noted
The panel holds about 79,000 compounds, 15% with a hit somewhere; the sample as a whole holds those more often.
parameter: growth inhibition (%)
Expressed in %, but write only the number.

These solved cases illustrate the format of a correct answer.
# molecule, unit-info, growth inhibition
data = [
    ("CC(C)=CC(=O)CC1(C)CCC(c2ccoc2)O1 (stereo not given)", "%", 6.35),
    ("CC1OC(O[C@H]2CC[C@]3(C)[C@H]4CC=C5[C@@H]6[C@@H](C)[C@H](C)CC[C@]6(C(=O)OC6OC(CO)C(O)C(O)C6O)CC[C@@]5(C(=O)O)[C@]4(C)CC[C@H]3C2(C)C)C(O)C(O)C1O (stereo not given in full)", "%", -23.2),
    ("CCCCC(C(=O)O)N(C)C (stereo not given)", "%", 2.4),
    ("COc1cc2c3cc1Oc1cc(ccc1O)C[C@@H]1c4c(cc(OC)c(O)c4Oc4ccc(cc4)C[C@@H]3[N+](C)(C)CC2)CC[N+]1(C)C", "%", -35.6),
]

I am curious: what growth inhibition value has been reported for `O=C(Nc1ccc(S(=O)(=O)Nc2nccs2)cc1)c1ccncc1` ? 28.3
